These measurements were taken from patent US20240218022A1.

- Experimental system: mouse VISTA (mVISTA) (Mus musculus)
- Construct: expressed in transfected cells; host or cells: Human embryonic kidney 293T cells
- Test protocol: Cell-Based Binding High-Content Assay For mVISTA (HC CBA mVISTA)
- Test parameters: read-out: HC CBA mVISTA IC50
pIC50: −log10 of the molar value. Positions of bridges follow the written chain, without caps; N, C: chain ends. Non-standard residues stand in square brackets, D forms with d. Residues, ends and D or L forms follow the SMILES beside them. *: point of attachment. Ahp(2) = CCCCC[C@H](N)C(=O)O; NMeNle = CCCC[C@H](NC)C(=O)O; NHexGly = CCCCCCNCC(=O)O; Allyl = C=CC*
Value kind: pIC50

{"columns": ["Compound", "Value observed"],
 "data": [
  ["C=CCOc1ccc(C[C@@H]2NC(=O)CSC[C@@H](C(=O)NCC(N)=O)NC(=O)[C@H](CO)NC(=O)[C@H](C(C)C)NC(=O)[C@@H]3CCCN3C(=O)[C@H](CCCCC)NC(=O)[C@H](CCCC)N(C)C(=O)[C@H](CCCNC(=N)N)NC(=O)[C@H](CC(N)=O)NC(=O)[C@H](CC(C)C)NC(=O)[C@H](Cc3ccc(O)cc3)NC(=O)CN(CCCCCC)C(=O)[C@H](CC(=O)O)NC(=O)[C@H](Cc3ccc(O)cc3)NC2=O)cc1 [compound 1222] ({CH2CO}-Y(Allyl)YD[NHexGly]YLNR[NMeNle][Ahp(2)]PVSCG-NH2; thioether N-14)", 7.66]
]}

---

- Experimental system: mouse VISTA (mVISTA) (Mus musculus, UniProt Q9D659)
- Construct: expressed in transfected cells; host or cells: Human embryonic kidney 293T cells
- Sequence (Q9D659 33-308): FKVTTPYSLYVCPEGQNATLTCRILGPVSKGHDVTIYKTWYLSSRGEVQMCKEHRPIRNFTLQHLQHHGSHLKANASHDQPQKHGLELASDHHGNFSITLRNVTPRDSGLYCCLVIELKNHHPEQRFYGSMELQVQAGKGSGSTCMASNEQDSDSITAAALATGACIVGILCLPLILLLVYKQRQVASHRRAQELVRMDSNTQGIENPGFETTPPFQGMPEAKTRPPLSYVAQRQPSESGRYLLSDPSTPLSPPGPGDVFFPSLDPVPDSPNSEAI
- Test protocol: Cell-Based Binding High-Content Assay For mVISTA (HC CBA mVISTA)
- Test parameters: 293T cells expressing mouse VISTA; competition with biotinylated peptide (2 nM); read-out: HC CBA mVISTA IC50
Positions of bridges follow the written chain, without caps; N, C: chain ends. Non-standard residues stand in square brackets, D forms with d. Residues, ends and D or L forms follow the SMILES beside them. Ahp(2) = CCCCC[C@H](N)C(=O)O; NHexGly = CCCCCCNCC(=O)O
Value kind: IC50

{"columns": ["Compound", "Value kind", "Value observed"],
 "data": [
  ["CCCCCCN1CC(=O)N[C@@H](Cc2ccc(O)cc2)C(=O)N[C@@H](C(C)C)C(=O)NCC(=O)N[C@@H](CCCNC(=N)N)C(=O)N[C@@H](CC(C)C)C(=O)N[C@@H](CCCCC)C(=O)N2CCC[C@H]2C(=O)N[C@@H](C(C)C)C(=O)N[C@@H](CO)C(=O)N[C@H](C(=O)NCC(=O)O)CSCC(=O)N[C@@H](Cc2ccccc2)C(=O)N[C@@H](Cc2ccc(O)cc2)C(=O)N[C@@H](CC(=O)O)C1=O [Example 1063] ({CH2CO}-FYD[NHexGly]YVGRL[Ahp(2)]PVSCG-OH; thioether N-14)", "IC50", "28.6 nM"]
]}

---

- Experimental system: mouse VISTA (mVISTA) (Mus musculus, UniProt Q9D659)
- Construct: expressed in transfected cells; host or cells: Human embryonic kidney 293T cells
- Test protocol: Cell-Based Binding High-Content Assay For mVISTA (HC CBA mVISTA)
- Test parameters: the 19th table, scaffold drawing 22; read-out: HC CBA mVISTA IC50
pIC50: −log10 of the molar value. Positions of bridges follow the written chain, without caps; N, C: chain ends. Non-standard residues stand in square brackets, D forms with d. Residues, ends and D or L forms follow the SMILES beside them. Phe(3-Me) = Cc1cccc(C[C@H](N)C(=O)O)c1; Ahp(2) = CCCCC[C@H](N)C(=O)O; NMeNle = CCCC[C@H](NC)C(=O)O; NHexGly = CCCCCCNCC(=O)O; Nle = CCCC[C@H](N)C(=O)O; Orn = NCCC[C@H](N)C(=O)O
Some molecules, each annotated with its measured pIC50.

{"columns": ["Molecule", "pIC50"],
 "data": [
  ["CCCCCCN1CC(=O)N[C@@H](Cc2ccc(O)cc2)C(=O)N[C@@H](CCCC)C(=O)N[C@@H](CC(N)=O)C(=O)N[C@@H](CCCNC(=N)N)C(=O)N(C)[C@@H](CCCC)C(=O)N[C@@H](CCCCC)C(=O)N2CCC[C@H]2C(=O)N[C@@H](C(C)C)C(=O)N[C@@H](CC(=O)O)C(=O)N[C@H](C(=O)NCC(=O)O)CSCC(=O)N[C@@H](Cc2cccc(C)c2)C(=O)N[C@@H](Cc2ccc(O)cc2)C(=O)N[C@@H](CC(=O)O)C1=O [compound 1450] ({CH2CO}-[Phe(3-Me)]YD[NHexGly]Y[Nle]NR[NMeNle][Ahp(2)]PVDCG-OH; thioether N-14)", 8.15],
  ["CCCCCCN1CC(=O)N[C@@H](Cc2ccc(O)cc2)C(=O)N[C@@H](CCCC)C(=O)NCC(=O)N[C@@H](CCCNC(=N)N)C(=O)N[C@@H](CC(C)C)C(=O)N[C@@H](CCCCC)C(=O)N2CCC[C@H]2C(=O)N[C@@H](C(C)C)C(=O)N[C@@H](CC(=O)O)C(=O)N[C@H](C(=O)NCC(=O)O)CSCC(=O)N[C@@H](Cc2cccc(C)c2)C(=O)N[C@@H](Cc2ccc(O)cc2)C(=O)N[C@@H](CC(=O)O)C1=O [compound 1431] ({CH2CO}-[Phe(3-Me)]YD[NHexGly]Y[Nle]GRL[Ahp(2)]PVDCG-OH; thioether N-14)", 8.60],
  ["CCCCCCN1CC(=O)N[C@@H](Cc2ccc(O)cc2)C(=O)N[C@@H](CCCC)C(=O)N[C@@H](CC(=O)O)C(=O)N[C@@H](CCCNC(=N)N)C(=O)N[C@@H](CC(C)C)C(=O)N[C@@H](CCCCC)C(=O)N2CCC[C@H]2C(=O)N[C@@H](C(C)C)C(=O)N[C@@H](CC(=O)O)C(=O)N[C@H](C(=O)N[C@@H](CO)C(N)=O)CSCC(=O)N[C@@H](Cc2cccc(C)c2)C(=O)N[C@@H](Cc2ccc(O)cc2)C(=O)N[C@@H](CC(=O)O)C1=O [compound 1437] ({CH2CO}-[Phe(3-Me)]YD[NHexGly]Y[Nle]DRL[Ahp(2)]PVDCS-NH2; thioether N-14)", 7.74],
  ["CCCCCCN1CC(=O)N[C@@H](Cc2ccc(O)cc2)C(=O)N[C@@H](CCCC)C(=O)N[C@@H](CC(=O)O)C(=O)N[C@@H](CCCN)C(=O)N[C@@H](CC(C)C)C(=O)N[C@@H](CCCCC)C(=O)N2CCC[C@H]2C(=O)N[C@@H](C(C)C)C(=O)N[C@@H](CC(=O)O)C(=O)N[C@H](C(=O)N[C@@H](CO)C(N)=O)CSCC(=O)N[C@@H](Cc2cccc(C)c2)C(=O)N[C@@H](Cc2ccc(O)cc2)C(=O)N[C@@H](CC(=O)O)C1=O [compound 1436] ({CH2CO}-[Phe(3-Me)]YD[NHexGly]Y[Nle]D[Orn]L[Ahp(2)]PVDCS-NH2; thioether N-14)", 7.97]
]}
